# System: Chlamydomonas reinhardtii, Nile Red lipid fluorescence, 72 h
# test-name: compounds raising TAG storage in Chlamydomonas – qHTS, Chlamydomonas reinhardtii, dose response (AID 1159536)
Records with an inconclusive call do not appear. Calls of active or inactive are those of the source. How the calls were made is not given here.
Outcomes: true (active), false (inactive)

1) CCSc1ccc(C(=O)Nc2ccc(Cc3ccncc3)cc2)cc1[N+](=O)[O-] :: true
2) CN1CC=C(CNc2cccc3c2CCCC3)CC1 :: true
3) COc1ccccc1N1CCN(C2CCN(Cc3cccc(C)c3)CC2)CC1 :: true
4) O=[N+]([O-])c1ccccc1S(=O)(=O)N1CCN(C2CCN(Cc3ccccc3)CC2)CC1 :: true
5) CC(=O)NC1=C(N2CCN(Cc3ccccc3)CC2)C(=O)c2ccccc2C1=O :: false
6) Cc1ccc(C)c(N2CCN(C3CCCCCC3)CC2)c1 :: true
7) O=C1CC(N2CCN(Cc3ccc4c(c3)OCO4)CC2)C(=O)N1CCc1ccccc1 (stereo unspecified) :: true
8) Cc1ccc(OCCCCN2CCOCC2)cc1 :: true
9) NC(=O)c1cc(-c2ccccc2)sc1NC(=O)c1ccc(OC(F)F)cc1 :: true
10) Cc1ccc(CN2CCN(c3ccc(F)cc3)CC2)cc1 :: true
11) CN1CCN(CCCOc2ccc(Br)cc2)CC1 :: true

* * *

# System: Chlamydomonas reinhardtii, Nile Red lipid fluorescence, 72 h
# test-name: compounds raising TAG storage in Chlamydomonas – qHTS, Chlamydomonas reinhardtii, dose response (AID 1159536)
Results filed as inconclusive are left out. The source made the active and inactive calls. The rule behind the calls is not given here.
Labels: label 1 (active), label 0 (inactive)

1) CCN1CCN(Cc2ccc(N(CC)CC)cc2)CC1 :: label 1
2) COc1ccc(CCN(C)Cc2ccc([N+](=O)[O-])cc2)cc1OC :: label 1
3) C(#CC12CC3CC(CC(C3)C1)C2)CN1CCOCC1 :: label 1
4) CN(CC(O)COc1ccc(Br)cc1)C1CCCCC1 (stereo unspecified) :: label 1
5) CCN(CC)CC#CCOc1ccccc1 :: label 1
6) CN(c1ccc(C(=O)NC2CCCCCC2)cc1)S(=O)(=O)c1ccccc1 :: label 1
7) CCOc1ccc(CN2CCN(c3ccccc3C)CC2)cc1 :: label 1
8) Cc1ccsc1/C=C(\C#N)c1nc(-c2ccc([N+](=O)[O-])cc2)cs1 :: label 0
9) Cc1ccc(C(=O)c2ccc(N3CCN(C)CC3)c(F)c2)cc1C :: label 0
10) COc1ccccc1NC(=O)N1CCN(c2ccccn2)CC1 :: label 1
11) O=C(c1ccc([N+](=O)[O-])cc1)N1CCN(CC2CC3C=CC2C3)CC1 (stereo unspecified) :: label 1
12) Cc1cc(C(C)(C)C)ccc1OCCOCCN1CCN(C)CC1 :: label 0
13) c1coc(CN2CCN(C3CCCCC3)CC2)c1 :: label 1
14) CC(C)C(NS(=O)(=O)c1cccs1)C(C)C :: label 0
15) OC(COc1ccccc1Br)CN1CCCCC1 (stereo unspecified) :: label 1
16) Cc1cc(Br)ccc1OCCCCN1CCCC1 :: label 1
17) CCN(CC)CC(=O)Nc1ccc(Br)cc1 :: label 1
18) C=CCc1cc(Cl)ccc1OCCN1CCN(C)CC1 :: label 1
19) C=CCN1C(=O)C(=O)c2cc(Br)ccc21 :: label 1
20) CCC(C)c1ccccc1OCCCCN1CCCC1 (stereo unspecified) :: label 1
21) CCOc1c(Cl)cc(C(=O)Nc2cccc([N+](=O)[O-])c2)cc1Cl :: label 0
22) Cc1cccc(N2CCN(C(=O)C3CCN(CC4CCCCC4)CC3)CC2)c1C :: label 1
23) COc1ccc(OCCCN2CCCC(C)C2)cc1 (stereo unspecified) :: label 1
24) CN1CCN(Cc2ccc3c(c2)Cc2ccccc2-3)CC1 :: label 1
25) Cc1ccc(S(=O)(=O)n2cccn2)cc1 :: label 0
26) O=[N+]([O-])c1ccc(CN2CCN(Cc3ccccc3F)CC2)cc1 :: label 1
27) Fc1ccc(N2CCN(Cc3ccsc3)CC2)cc1 :: label 1
28) CN1CCN(C2C3CC4CC(C3)CC2C4)CC1 (stereo unspecified) :: label 1
29) CC(C)NC(=O)c1ccccc1NC(=O)c1ccc(Cl)cc1 :: label 0
30) CCS(=O)(=O)N1CCN(C2CCCCCCC2)CC1 :: label 1
31) COc1cccc(N2CCN(C3CCCC(C)C3)CC2)c1 (stereo unspecified) :: label 1
32) Cc1cc(OCC(O)CN2CCN(CCO)CC2)ccc1C(C)C (stereo unspecified) :: label 1
33) CN(CCc1ccccc1)C1CCN(Cc2ccccc2)CC1 :: label 1
34) CC1(C)Oc2ccc(NC(=O)c3ccc(C(=O)c4ccccc4)cc3)cc2O1 :: label 0
35) CC1CCC(N2CCN(c3ccccc3)CC2)C1 (stereo unspecified) :: label 1
36) O=[N+]([O-])c1ccc(CNC2CCCC2)cc1 :: label 1
37) O=[N+]([O-])c1ccc(CN2CCN(C3CCCC3)CC2)cc1 :: label 1
38) CN1CCC(N(C)Cc2cccc(Oc3ccccc3)c2)CC1 :: label 1
39) COc1ccccc1N1CCN(Cc2ccc(F)cc2)CC1 :: label 1
40) O=C(c1ccccc1)c1ccc(OCCCCn2ccnc2)cc1 :: label 0
41) c1coc(CN2CCN(C3CCCCCC3)CC2)c1 :: label 1
42) N#Cc1c(-n2ncnc2-c2cccnc2)sc2c1CCCCC2 :: label 0
43) CN(CCC#N)C12CC3CC(CC(C3)C1)C2 :: label 1
44) Cc1ccc(OCCCn2ccnc2)c(Br)c1 :: label 1
45) CC(C)(Oc1ccc(Cl)cc1)C(=O)Nc1ccc(Br)cc1F :: label 0
46) Cn1c(SCC(=O)NCc2ccccc2)nnc1-c1ccc(C(C)(C)C)cc1 :: label 0
47) CCN(Cc1ccccc1)C(=O)C1CCN(Cc2ccccc2F)CC1 :: label 1
48) Nc1ccc(C(=O)Nc2ccc(Cl)cc2Cl)cc1 :: label 1
49) O=C1CC(N2CCc3ccccc3C2)C(=O)N1c1ccc([N+](=O)[O-])cc1 (stereo unspecified) :: label 0
50) CCOc1ccc(CN2CCN(c3ccc([N+](=O)[O-])cc3)CC2)cc1 :: label 1
51) COc1ccccc1N1CCN(Cc2ccc(C)cc2)CC1 :: label 1
